Please provide measured Cmax for the entries that follow.
RUN DESCRIPTION: clinical
EXPERIMENTAL SETUP: human, in vivo, 150 mg, Cmax

Working through the 2 compounds below one at a time, give Cmax for each.
1. C#Cc1cccc(Nc2ncnc3cc(OCCOC)c(OCCOC)cc23)c1 [erlotinib, Erlotinib, reference compound]
2. C[C@]1(O)C[C@@H](c2nc(-c3ccc4ccc(-c5ccccc5)nc4c3)c3c(N)nccn32)C1 [linsitinib, Linsitinib]

1280 ng/mL
2580 ng/mL
